# System: NCI/ADR-RES ovarian
# PROCEDURE DETAILS: NCI-60 one-dose screen, 48 h
# EXPERIMENTAL CONDITIONS: 10 µM unless noted
The panel holds about 83,000 compounds, 20% with a hit somewhere; the sample as a whole holds those more often. Activity calls are given as the source filed them. The calls were made as follows: active = growth percent below 10; inactive = the rest.
Please reply with one of these outcomes: active, inactive

{"MOLECULE": "COc1c(N2CC3CCCN(C(C)=O)C3C2)c(F)cc2c(=O)c(C(=O)N[C@H]3C(O)[C@@H](O)C(CO)O[C@H]3O)cn(C3CC3)c12 (some centres undefined)", "ASSIGNED CLASS": "inactive"}
{"MOLECULE": "CN1C(=O)CNC(=O)[C@H](NC(=O)c2nc3ccccc3cc2O)CSSC[C@H]1C(=O)NCCc1nc2ccccc2cc1O", "ASSIGNED CLASS": "inactive"}
{"MOLECULE": "Cn1cc(-c2ccc3cc(-c4ccc(CC(=O)Nc5cc(C(C)(C)C)nn5C)cc4)cnc3c2)cn1", "ASSIGNED CLASS": "active"}
{"MOLECULE": "CC(=O)OC[C@H]1OC(Sc2sc(C(=O)c3ccc(Br)cc3)c(N)c2-c2nc3ccccc3s2)[C@H](OC(C)=O)[C@@H](OC(C)=O)[C@H]1OC(C)=O (some centres undefined)", "ASSIGNED CLASS": "inactive"}
{"MOLECULE": "O=C(CCOCCNC(=O)COc1ccc2c(c1)OCC(c1ccc(F)cc1)C2=O)NCCCC(O)(P(=O)(O)O)P(=O)(O)O (centres undefined)", "ASSIGNED CLASS": "inactive"}

Prompt: Any idea what this test logged for COc1ccc(-c2ncnc3c2ncn3CC#CCCl)cc1 ?
Response: inactive

Prompt: // param item: COc1cc(Nc2cn[nH]c2-c2ccc(Cl)cc2)cc(OC)c1OC ; yields the recorded call
Response: active

Prompt: Any idea what this test logged for O=C(O)CCC/C=C\C[C@H]1C=CC(=O)/C1=C/C[C@@H](O)CCc1cccc(C(F)(F)F)c1 ?
Response: active

Prompt: Any idea what this test logged for O=CN1N=C(c2ccc(Nc3ccnc4cc(Cl)ccc34)cc2)CC1c1ccccc1 (centres undefined) ?
Response: active
